- assay: S. cerevisiae growth inhibition in permissive medium (OD615), pilot counter-assay for S. cerevisiae lifespan shortening project, permissive growth control (AID 705)
- assay.setup: OD615, 24 h, at 10 µM, stronger effect = higher value
Task for the reader: assign each of the following molecules its reported growth inhibition.
Give the value, in units of %, as a plain number.

molecule CCn1c(SCC(=O)Nc2cccc(C)c2)nc2c(c1=O)SC(C)C2 (centres undefined) , growth inhibition observed: -3.52

molecule O=C(c1ccccc1)n1nc(-c2ccccc2)nc1NCc1ccco1 , growth inhibition observed: -15.5

molecule O=C(NCCc1csc(-c2ccccc2)n1)c1cccs1 , growth inhibition observed: -8.41

molecule Cc1ccc(-c2noc(COc3ccccc3C)n2)cc1 , growth inhibition observed: -13.7

molecule c1ccc(-c2nnc(CSc3nncs3)o2)cc1 , growth inhibition observed: -16

molecule Nc1nc(NC(=O)c2ccco2)nn1-c1ccccc1 , growth inhibition observed: -11.7

molecule CCn1cc(CNC(=O)c2cc(Cl)ccc2OC)c(C)n1 , growth inhibition observed: -4.3

molecule CCN(CC)c1ccc(NC(=O)c2nc3nc(C)cc(C(F)F)n3n2)cc1 , growth inhibition observed: -8.26

molecule O=C(Nc1ccc2c(c1)OCCO2)C1CCN(C(=O)c2ccc(F)cc2)CC1 , growth inhibition observed: -9.55

molecule CCOC(=O)Nc1ccc2ncn(C)c(=O)c2c1 , growth inhibition observed: -16.6

molecule CC(C)CCNC(=O)CCS(=O)(=O)c1cccc2nonc12 , growth inhibition observed: -8.87

molecule O=C(NC(=O)c1cccc(F)c1)OC[C@@H]1CCCN2CCCC[C@H]12 , growth inhibition observed: 1.28

molecule Cc1cc(C(N)=O)c2cc(Br)ccc2n1 , growth inhibition observed: -1.99

molecule Cc1ccccc1Cn1cc(/C=N/n2cnnc2)c2ccccc21 , growth inhibition observed: 7.88

molecule CN(C)S(=O)(=O)c1ccc(C(=O)OCCCN=C2NS(=O)(=O)c3ccccc32)cc1 , growth inhibition observed: -13

molecule CC1CCN(C(=O)CSc2nnc(Cc3cc(=O)[nH]c(=O)[nH]3)n2-c2ccc(Cl)cc2)CC1 , growth inhibition observed: -17.1

molecule Cc1c(C(=O)OC2CCCC2)[nH]c2c1C(=O)CC(c1ccco1)C2 (centres undefined) , growth inhibition observed: -6.06

molecule CN(C)C(=O)N1CCN(C(=O)c2ccco2)CC1 , growth inhibition observed: 1.14

molecule COc1ccc(C)cc1S(=O)(=O)N1CCN(S(=O)(=O)c2cc(C)ccc2OC)CC1 , growth inhibition observed: -15.6

molecule O=C(CSc1nc2c(c(=O)n1-c1ccc(Cl)cc1)SCC2)Nc1nccs1 , growth inhibition observed: -2.95

molecule CC1CCC(NC(=O)C2(C)CCC(=O)N2Cc2cccnc2)CC1 (centres undefined) , growth inhibition observed: -12.3

molecule CCOC(=O)/C(C#N)=C1/C=Nc2ccccc2N1 , growth inhibition observed: -4.26

molecule Cc1ccccc1-c1c(C)oc2cc(O)ccc2c1=O , growth inhibition observed: 1.68

molecule Cc1ccc2cc(CCNC(=O)C(C)C)c(=O)[nH]c2c1C , growth inhibition observed: -15.2

molecule CCOC(=O)CSc1nnc(Cn2c(=O)sc3ccccc32)n1C , growth inhibition observed: 1.56

molecule O=C(c1ccc2nc(N3CCCCC3)sc2c1)N1CCN(c2ccccn2)CC1 , growth inhibition observed: 2.65

molecule COCCn1c(SCC(=O)N2CCc3ccccc32)nc2c(c1=O)SC(C)C2 (centres undefined) , growth inhibition observed: 6.33

molecule CCOC(=O)Cn1c(CN(C)Cc2ccccc2)nc2c1c(=O)n(C)c(=O)n2C , growth inhibition observed: -28.8

molecule Cn1nnnc1SCC(=O)Nc1ccccc1-c1ccccc1 , growth inhibition observed: -19.3
